These measurements were taken from the supplement of paper PMC10307832.

- Tested on: NCI-H441
- measurement-description: relative viability (nuclei count vs DMSO), 5 days (fraction); higher = more cells survive
- reported-conditions: first compound 0.01 µM
assay-endpoint: relative viability
One number for each entry.

Parameter requested: relative viability. Apply to each item below.
1. CCN(CC)CCCCNc1ncc2cc(-c3cc(OC)cc(OC)c3)c(NC(=O)NC(C)(C)C)nc2n1 + Cc1nc(NC(=O)N2CCC[C@H]2C(N)=O)sc1-c1ccnc(C(C)(C)C(F)(F)F)c1 [Alpelisib] (partner 2 µM)
2. CCN(CC)CCCCNc1ncc2cc(-c3cc(OC)cc(OC)c3)c(NC(=O)NC(C)(C)C)nc2n1 + CC(=O)Nc1cccc(-n2c(=O)n(C3CC3)c(=O)c3c(Nc4ccc(I)cc4F)n(C)c(=O)c(C)c32)c1 [Trametinib] (partner 0.02 µM)

[0.801, 0.545]
